TARGET ENTITY: Neu5Ac(a2-3)Gal(b1-4)GlcNAc(b1-6)[Gal(b1-3)]GalNAc
RUN DESCRIPTION: glycan array binding signal (z-score within array); higher = stronger binding
EXPERIMENTAL SETUP: glycan notation: IUPAC condensed, linker removed
This is one part of a sample in which the strongest signals are shown more often than they occur.
Below is a list of entries, each paired with its recorded glycan array binding signal (z-score) value.
Respond using a number only.

GSL-I-B4 (Griffonia simplicifolia) (protein) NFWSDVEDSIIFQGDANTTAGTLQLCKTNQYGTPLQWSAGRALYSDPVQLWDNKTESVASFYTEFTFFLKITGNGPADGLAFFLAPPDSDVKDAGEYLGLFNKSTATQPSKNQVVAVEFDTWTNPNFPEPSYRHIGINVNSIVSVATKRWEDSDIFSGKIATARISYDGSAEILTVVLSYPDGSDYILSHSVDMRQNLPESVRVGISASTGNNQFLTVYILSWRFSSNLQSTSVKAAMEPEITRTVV : -0.23
Gal 4 (Mus musculus), P56470 (protein) MAYVPAPGYQPTYNPTLPYYQPIPGGLNVGMSVYIQGVASEHMKRFFVNFVVGQDPGSDVAFHFNPRFDGWDKVVFNTLQGGKWGSEERKRSMPFKKGAAFELVFIVLAEHYKVVVNGNPFYEYGHRLPLQMVTHLQVDGDLQLQSINFIGGQPLRPQGPPMMPPYPGPGHCHQQLNSLPTMEGPPTFNPPVPYFGRLQGGLTARRTIIIKGYVPPTGKSFAINFKVGSSGDIALHINPRMGNGTVVRNSLLNGSWGSEEKKITHNPFGPGQFFDLSIRCGLDRFKVYANGQHLFDFAHRLSAFQRVDTLEIQGDVTLSYVQI : -0.228

Enquiry: Which value of glycan array binding signal (z-score) has been reported for Lb MiSSP8 (Laccaria bicolor) (protein) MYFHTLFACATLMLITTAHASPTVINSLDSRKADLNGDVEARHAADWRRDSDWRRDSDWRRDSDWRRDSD in the records?
Return: 3.01
